Assay: RP, Waters ACQUITY UPLC BEH C18, 100 × 1 mm, 1.7 µm, 50 °C, 0.3 mL/min, estimated dead time 0.17 min; A: water + 10 mM ammonium bicarbonate; B: 10% water + 90% methanol + 10 mM ammonium bicarbonate; gradient (min/%B) 0/0 15/100 21/100 22/0 30/0
Settings: stereoisomer not certain
Some compounds, each annotated with its measured LC retention time.
Please answer using a numeric value trailed by its unit.

Sample records with LC retention time:
- compound: "O=C(O)c1nc(Cl)ccc1Cl"
  LC retention time: "3.37 min"
- compound: "CC1=CC2OC3C(O)C(O)C(C)(C34CO4)C2(CO)C(O)C1=O (centres undefined)"
  LC retention time: "5.94 min"
- compound: "CN1COCN(Cc2cnc(Cl)s2)C1=O"
  LC retention time: "9.5 min"
- compound: "O=C(O)COc1ccc(Cl)cc1Cl"
  LC retention time: "10.6 min"
- compound: "Cc1c(Cl)cccc1Nc1ccccc1C(=O)O"
  LC retention time: "14.4 min"

Form: compound = CC(C)C1(C)N=C(c2ncccc2C(=O)O)NC1=O (centres undefined) ; LC retention time = 5.24 min

Form field LC retention time, entry CC(=O)Nc1ccc(N)cc1 [4'-Aminoacetanilide] : 4.75 min

Lab note: measured LC retention time of CCC1CCCC(OC2CCC(N(C)C)C(C)O2)C(C)C(=O)C2=CC3C(C=C(C)C4CC(OC5OC(C)C(OC)C(OC)C5OC)CC43)C2CC(=O)O1 (single isomer, unassigned; isomer 2) [Spinosad (Isomer 2)] was 19.2 min

Per the records, this compound ( CCCCCCCCCCCCNC ) has LC retention time equal to 17.7 min

# compound CC[N+]1([O-])CCCC1CNC(=O)c1cc(S(=O)(=O)CC)c(N)cc1OC (centres undefined) [Amisulpride N-Oxide] ; its LC retention time = 8.43 min

---

Test: RP, Waters ACQUITY UPLC BEH C18, 100 × 1 mm, 1.7 µm, 50 °C, 0.3 mL/min, estimated dead time 0.17 min; A: water + 0.1% formic acid + 20 mM ammonium formate; B: methanol + 0.1% formic acid + 20 mM ammonium formate; gradient (min/%B) 0/0 15/100 21/100 22/0 30/0
Settings: stereoisomer not certain
Binarize LC retention time at 10 min; below is 1.0, at or above is 0.0.

Example cases with answers are listed next.
- compound: "CC1CCCCC1NC(=O)Nc1ccccc1 (stereo not given)"
  label: 0.0
- compound: "CCOCN(C(=O)CCl)c1c(C)cccc1CC"
  label: 0.0

**Q:** Below 10 min on LC retention time? Entry O=C1CCCC2C3CCCN4CCCC(CN12)C34 (stereo not given)
**A:** 1.0

**Q:** Does the reported LC retention time of CCOCN(C(=O)C(=O)O)c1c(C)cccc1CC stay below 10 min?
**A:** 0.0

**Q:** Problem: For the compound CCC(C=CC(C)C1CCC2C3CC=C4CC(O)CCC4(C)C3CCC12C)C(C)C (stereo not given) , is LC retention time under 10 min?
**A:** 0.0

---

Experiment: RP, Waters ACQUITY UPLC BEH C18, 100 × 1 mm, 1.7 µm, 50 °C, 0.3 mL/min, estimated dead time 0.17 min; A: water + 0.1% formic acid + 20 mM ammonium formate; B: methanol + 0.1% formic acid + 20 mM ammonium formate; gradient (min/%B) 0/0 15/100 21/100 22/0 30/0
Settings: stereoisomer not certain
Below: a set of entries, each annotated with reported LC retention time.
# unit: min | format: bare number

- compound: "Cc1cccc(Cl)c1NC(=O)N(C)C"
  unit-of-measure: "min"
  LC retention time: 10
- compound: "Nc1ccc(Cl)cc1Cl"
  unit-of-measure: "min"
  LC retention time: 17.6
- compound: "CCCCCCCCSCCOCCO"
  unit-of-measure: "min"
  LC retention time: 16.5

According to the records, this compound Oc1c(Br)cc(Cl)cc1Cc1cc(Cl)cc(Br)c1O displays LC retention time of 17.3

Recorded result, CCOP(=O)(OCC)Oc1nc(Cl)c(Cl)cc1Cl , LC retention time: 15.2

Per the records, this compound ( CC(=O)Nc1ccc(N)cc1 [4'-Aminoacetanilide] ) has LC retention time equal to 8.1

In plain terms, CN(C)CCOC(c1ccccc1)c1ccccc1 [Diphenhydramine] has a documented LC retention time of 11.7

Form field LC retention time, entry CC(C)CCCCCCCOC(=O)c1ccccc1C(=O)OCCCCCCCC(C)C [Di-iso-decylphthalate] : 20
